assay: gradient 5% acetonitrile 3 min, to 50% in 2 min, to 85% in 15 min, held 3 min, 100 µL/min; details: column: Zorbax Extend-C18 2.1 x 50 mm; eluents: water / acetonitrile, 0.1% formic acid
Items are presented alongside their recorded RP-LC retention time.

[
  {
    "compound": "CCOc1ccccc1NC(=O)Cn1c(=O)n(-c2ccccc2)c(=O)c2c1cc(C)n2C",
    "RP-LC retention time [s]": 909
  },
  {
    "compound": "O=C(c1ccc(Nc2c(-c3ccccc3)nc3cnccn23)cc1)N1CCOCC1",
    "RP-LC retention time [s]": 655
  },
  {
    "compound": "COc1ccc(NC(=O)C2CCN(C(=O)C3Sc4ccccc4NC3=O)CC2)cc1 (stereo not drawn)",
    "RP-LC retention time [s]": 729
  },
  {
    "compound": "COc1ccc(-n2nnc(-c3nsc(Nc4cccc(Cl)c4)n3)c2C)cc1",
    "RP-LC retention time [s]": 1080
  },
  {
    "compound": "O=S(=O)(c1ccc(N2CCN(c3ccccn3)CC2)nn1)C1CCCCC1",
    "RP-LC retention time [s]": 608
  },
  {
    "compound": "CCn1c(N2CCCC(C(=O)NCc3ccc(OC)cc3OC)C2)cc(=O)n(C)c1=O (stereo not drawn)",
    "RP-LC retention time [s]": 752
  },
  {
    "compound": "O=C(NC1CCS(=O)(=O)C1)C1Cn2cccc2C(=O)N1Cc1ccccc1 (stereo not drawn)",
    "RP-LC retention time [s]": 652
  },
  {
    "compound": "CN(C)c1ccc2c(c1)CN(C(=O)c1cc(C3CC3)[nH]n1)CCO2",
    "RP-LC retention time [s]": 588
  },
  {
    "compound": "CC(NC(=O)CN1C(=O)C2CCCCN2c2ccc(S(=O)(=O)N(C)C)cc21)c1ccccc1 (stereo not drawn)",
    "RP-LC retention time [s]": 902
  },
  {
    "compound": "CCOc1ccc(S(=O)(=O)N2CCC(C(=O)N3CCN(C)CC3)CC2)cc1",
    "RP-LC retention time [s]": 569
  },
  {
    "compound": "Nc1ccc(C(=O)Nc2ccc(Nc3ccncc3)cc2)cc1",
    "RP-LC retention time [s]": 602
  },
  {
    "compound": "CCn1c(=O)oc2cc(S(=O)(=O)N3CCC(CC(=O)N4c5ccccc5CC4C)CC3)ccc21 (stereo not drawn)",
    "RP-LC retention time [s]": 1010
  },
  {
    "compound": "CC(C)c1noc(COC2CCCN(C(=O)NCc3ccccc3)C2)n1 (stereo not drawn)",
    "RP-LC retention time [s]": 780
  },
  {
    "compound": "Cc1cc(OCC(=O)NCCN(C)C)cc(C)c1Cl",
    "RP-LC retention time [s]": 629
  },
  {
    "compound": "Cc1cc(C)c2nc(C)cc(C(=O)N3CCN(c4ccccn4)CC3)c2c1",
    "RP-LC retention time [s]": 593
  },
  {
    "compound": "O=C(NCc1ccco1)c1ccc(NC(=O)C2CCC2)cc1N1CCCCC1",
    "RP-LC retention time [s]": 763
  },
  {
    "compound": "O=C(NCc1ccsc1)C(=O)Nc1cccnc1",
    "RP-LC retention time [s]": 566
  },
  {
    "compound": "CS(=O)(=O)N1CCOc2ccc(CCC(N)=O)cc2C1",
    "RP-LC retention time [s]": 628
  },
  {
    "compound": "CN(C)CC1CCC/C(=C\\c2ccc(OC(=O)/C=C/c3ccccc3)cc2)C1=O (stereo not drawn)",
    "RP-LC retention time [s]": 796
  },
  {
    "compound": "CC(C)(C)OC(=O)Cn1cnc2c(-c3ccc(F)cc3)csc2c1=O",
    "RP-LC retention time [s]": 709
  },
  {
    "compound": "O=C(NCc1ccc(F)c(Cl)c1)c1cn2c(n1)COCC2",
    "RP-LC retention time [s]": 690
  },
  {
    "compound": "Cc1ccc(CNC(=O)C2CCN(Cc3cc4ccccc4n3Cc3cccc(Cl)c3)CC2)o1",
    "RP-LC retention time [s]": 943
  },
  {
    "compound": "CC(C)(C)NC(=O)N1CC(n2cc(C(=O)N3CCOCC3)nn2)C1",
    "RP-LC retention time [s]": 646
  },
  {
    "compound": "COc1ccccc1NC(=O)NCC(c1cccnc1)c1c[nH]c2ccccc12 (stereo not drawn)",
    "RP-LC retention time [s]": 657
  },
  {
    "compound": "CC1=C(C(=O)OC(C)C)C(c2cccc(Oc3ccccc3)c2)NC(=O)N1 (stereo not drawn)",
    "RP-LC retention time [s]": 938
  },
  {
    "compound": "CCCN(CC(=O)N1CCc2sccc2C1COc1ccc(F)cc1)C(=O)NCC (stereo not drawn)",
    "RP-LC retention time [s]": 859
  },
  {
    "compound": "CCC(=O)N1CCc2cc(CNS(=O)(=O)c3ccc(OC)cc3)ccc21",
    "RP-LC retention time [s]": 812
  },
  {
    "compound": "O=C(CSc1nnc2c3sc(N4CCCC4)nc3ncn12)Nc1ccc(F)cc1",
    "RP-LC retention time [s]": 794
  }
]

###

experiment: gradient 5% acetonitrile 3 min, to 50% in 2 min, to 85% in 15 min, held 3 min, 100 µL/min; conditions: column: Zorbax Extend-C18 2.1 x 50 mm; eluents: water / acetonitrile, 0.1% formic acid
Short version: RP-LC retention time at least 700 s is Satisfied, less is Not satisfied.

[
  {
    "compound": "Cc1cc(C)n2nc(SCC(=O)NC(C)C)nc2n1",
    "class_assignment": "Not satisfied"
  },
  {
    "compound": "Cc1nc(-c2cc(S(=O)(=O)NCC(=O)NCc3ccccc3Cl)c(C)s2)no1",
    "class_assignment": "Satisfied"
  },
  {
    "compound": "O=C(CCc1nc(-c2ccc(N3CCCC3)cc2)no1)Nc1ccc2c(c1)OCCO2",
    "class_assignment": "Satisfied"
  },
  {
    "compound": "O=C1CCN(Cc2ccc3c(c2)CCO3)CCCCCCN1",
    "class_assignment": "Not satisfied"
  },
  {
    "compound": "CCc1nnc(-c2ccc(S(=O)(=O)NC3CCCC3)o2)o1",
    "class_assignment": "Satisfied"
  },
  {
    "compound": "CCCN1C(=O)c2ccccc2Sc2cc(-c3noc(C(C)NC(=O)c4ccco4)n3)ccc21 (stereo unspecified)",
    "class_assignment": "Satisfied"
  },
  {
    "compound": "OCC1CN(c2ncccn2)CC12CCN(Cc1c[nH]c3ccccc13)CC2 (stereo unspecified)",
    "class_assignment": "Not satisfied"
  },
  {
    "compound": "CC(C)C(=O)NCc1csc(C2CCCN(C(=O)c3cc(F)ccc3F)C2)n1 (stereo unspecified)",
    "class_assignment": "Satisfied"
  }
]

###

assay: gradient 5% acetonitrile 3 min, to 50% in 2 min, to 85% in 15 min, held 3 min, 100 µL/min; details: column: Zorbax Extend-C18 2.1 x 50 mm; eluents: water / acetonitrile, 0.1% formic acid
Items are presented alongside their recorded RP-LC retention time.

[
  {
    "smiles_record": "O=C(Cc1nnc(-c2ccc3ncccc3c2)o1)Nc1ccc(OC(F)(F)F)cc1",
    "unit_text": "s",
    "RP-LC retention time": 806
  },
  {
    "smiles_record": "CC(C)NC(=O)C1CCN(c2nc3ccc(-c4ccsc4)nc3s2)CC1",
    "unit_text": "s",
    "RP-LC retention time": 796
  },
  {
    "smiles_record": "Cc1noc(C)c1CNC(=O)c1cc(Cl)ccc1F",
    "unit_text": "s",
    "RP-LC retention time": 778
  }
]

###

assay: gradient 5% acetonitrile 3 min, to 50% in 2 min, to 85% in 15 min, held 3 min, 100 µL/min; details: column: Zorbax Extend-C18 2.1 x 50 mm; eluents: water / acetonitrile, 0.1% formic acid

[
  {
    "compound": "CNC(=O)c1c2c(nc3ccccc13)CCC2",
    "RP-LC retention time, s": 542
  },
  {
    "compound": "Cc1cc(C(=O)Nc2ccc3c(c2)N(S(=O)(=O)c2ccc(F)cc2)CCC3)c(C)o1",
    "RP-LC retention time, s": 1010
  },
  {
    "compound": "COc1ccc(-n2nc3c(N4CCCC(C(=O)NC5CCCC5)C4)nnc(C)c3c2C)cc1 (centres undefined)",
    "RP-LC retention time, s": 696
  },
  {
    "compound": "O=C(NC1CCCN(c2cc(-c3ccccc3)[nH]n2)C1)c1ccc2c(c1)OCO2 (centres undefined)",
    "RP-LC retention time, s": 760
  },
  {
    "compound": "O=S(=O)(c1cccc(-c2nc(-c3ccccc3)no2)c1)N1CCCc2ccccc21",
    "RP-LC retention time, s": 1350
  },
  {
    "compound": "COc1ccccc1C(=O)N1CCC2(CC1)NC(=O)c1cc(Cl)ccc1N2C",
    "RP-LC retention time, s": 787
  },
  {
    "compound": "O=C(NCCn1nnc2cc(C(=O)N3CCCC3)ccc21)Nc1ccc(Br)cc1F",
    "RP-LC retention time, s": 742
  },
  {
    "compound": "CC(NC(=O)C1CCCN(c2nccnc2Oc2ccccc2)C1)c1ccccc1 (centres undefined)",
    "RP-LC retention time, s": 986
  },
  {
    "compound": "Cn1ccc(CN2CCc3ccccc32)cc1=O",
    "RP-LC retention time, s": 788
  }
]
